All figures here come from ChEMBL document CHEMBL4368907.

Give pIC50 for every item shown.
# targetOrSystem: Gastrin/cholecystokinin type B receptor (Homo sapiens)
# Sequence (P32239 whole entry): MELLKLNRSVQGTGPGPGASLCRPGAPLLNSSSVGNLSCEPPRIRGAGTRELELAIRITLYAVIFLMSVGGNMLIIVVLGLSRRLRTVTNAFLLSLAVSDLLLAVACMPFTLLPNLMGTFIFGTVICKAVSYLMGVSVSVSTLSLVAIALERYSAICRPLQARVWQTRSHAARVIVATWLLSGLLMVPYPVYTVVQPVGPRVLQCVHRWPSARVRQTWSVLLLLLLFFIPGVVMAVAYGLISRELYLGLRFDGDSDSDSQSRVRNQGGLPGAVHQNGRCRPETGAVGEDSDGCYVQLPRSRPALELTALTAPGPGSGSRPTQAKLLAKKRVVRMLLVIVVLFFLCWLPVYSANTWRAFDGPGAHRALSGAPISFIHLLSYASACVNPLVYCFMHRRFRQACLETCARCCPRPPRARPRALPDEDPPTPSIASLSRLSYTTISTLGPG
# protocolNotes: Displacement of [125I]-CCK-8 from human CCK2R expressed in human 1321N1 cell membranes after 2 hrs by SPA assay
Numbered stars: 1 amine (or outer) side, 2 acyl side, 3 side chain; on linkers, the order of the positions; unused ones are H or OH. Square brackets hold non-standard residues; d marks the D form. Side chains are listed from the residue outwards. Peptide text beside a SMILES is read from it. * marks the point of attachment. sY = N[C@@H](Cc1ccc(OS(=O)(=O)O)cc1)C(=O)O; C18 diacid = O=C(O)CCCCCCCCCCCCCCCCC(=O)*; γGlu = O=C(O)[C@H](CCC(=O)[*:2])N[*:1]; NMeF = CN[C@@H](Cc1ccccc1)C(=O)O; NMeD = CN[C@@H](CC(=O)O)C(=O)O; Nle = CCCC[C@H](N)C(=O)O; X1 = O=C(Cc1ccc(O)cc1)*; AEEA = NCCOCCOCC(=O)O
Returns: the value as a bare number; no unit string appended.

pIC50 lookup needed for CCCC[C@H](NC(=O)[C@H](Cc1c[nH]c2ccccc12)NC(=O)CNC(=O)[C@H](CC(C)C)NC(=O)[C@H](Cc1c[nH]c2ccccc12)NC(=O)[C@H](CC(=O)O)NC(=O)COCCOCCNC(=O)COCCOCCNC(=O)CC[C@H](NC(=O)CCCCCCCCCCCCCCCCC(=O)O)C(=O)O)C(=O)N(C)[C@@H](CC(=O)O)C(=O)N(C)[C@@H](Cc1ccccc1)C(N)=O ({C18 diacid-γGlu-AEEA-AEEA}-DWLGW[Nle][NMeD][NMeF]-NH2) , thanks. 5.13

What do we get for CCCC[C@H](NC(=O)[C@H](Cc1c[nH]c2ccccc12)NC(=O)CNC(=O)[C@H](CCCCNC(=O)COCCOCCNC(=O)COCCOCCNC(=O)CC[C@H](NC(=O)CCCCCCCCCCCCCCCCC(=O)O)C(=O)O)NC(=O)Cc1ccc(O)cc1)C(=O)N(C)[C@@H](CC(=O)O)C(=O)N(C)[C@@H](Cc1ccccc1)C(N)=O (X1-K([AEEA-AEEA-γGlu-C18 diacid])GW[Nle][NMeD][NMeF]-NH2) ? 5.43

Next entry: CCCC[C@H](NC(=O)[C@H](Cc1c[nH]c2ccccc12)NC(=O)CNC(=O)[C@H](CC(C)C)NC(=O)[C@H](Cc1ccc(OS(=O)(=O)O)cc1)NC(=O)[C@H](CC(=O)O)NC(=O)COCCOCCNC(=O)COCCOCCNC(=O)CC[C@H](NC(=O)CCCCCCCCCCCCCCCCC(=O)O)C(=O)O)C(=O)N1CCC[C@H]1C(=O)N(C)[C@@H](Cc1ccccc1)C(N)=O ({C18 diacid-γGlu-AEEA-AEEA}-D[sY]LGW[Nle]P[NMeF]-NH2) 5.27

====

# targetOrSystem: Cholecystokinin receptor type A (Homo sapiens)
# Sequence (P32238 whole entry): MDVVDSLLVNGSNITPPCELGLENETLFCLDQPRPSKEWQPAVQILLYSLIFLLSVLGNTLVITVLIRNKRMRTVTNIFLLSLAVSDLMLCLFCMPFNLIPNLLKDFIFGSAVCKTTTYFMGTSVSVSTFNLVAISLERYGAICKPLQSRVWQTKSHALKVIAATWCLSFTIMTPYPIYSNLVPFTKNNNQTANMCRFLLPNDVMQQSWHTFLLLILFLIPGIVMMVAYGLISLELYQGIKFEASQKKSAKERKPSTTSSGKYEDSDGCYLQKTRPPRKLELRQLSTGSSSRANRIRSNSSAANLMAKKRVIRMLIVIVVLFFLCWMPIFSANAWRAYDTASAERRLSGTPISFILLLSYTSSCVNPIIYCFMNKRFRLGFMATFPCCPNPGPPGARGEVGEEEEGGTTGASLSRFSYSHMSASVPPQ
# protocolNotes: Agonist activity at human CCK1R expressed in human 1321N1 cells assessed as IP1 accumulation after 1 hr by HTRF assay
Numbered stars: 1 amine (or outer) side, 2 acyl side, 3 side chain; on linkers, the order of the positions; unused ones are H or OH. Square brackets hold non-standard residues; d marks the D form. Peptide text beside a SMILES is read from it. * marks the point of attachment. sY = N[C@@H](Cc1ccc(OS(=O)(=O)O)cc1)C(=O)O; C18 diacid = O=C(O)CCCCCCCCCCCCCCCCC(=O)*; γGlu = O=C(O)[C@H](CCC(=O)[*:2])N[*:1]; Nle = CCCC[C@H](N)C(=O)O; AEEA = NCCOCCOCC(=O)O
measurementKind: pEC50
Would you please state pEC50, meaning minus log10 of the concentration in mol/L, as a bare number?

Suppose we examine the molecule CCCC[C@H](NC(=O)[C@H](Cc1c[nH]c2ccccc12)NC(=O)[C@@H]1CCCN1C(=O)[C@H](CCCC)NC(=O)[C@H](Cc1ccc(OS(=O)(=O)O)cc1)NC(=O)[C@H](CC(=O)O)NC(=O)COCCOCCNC(=O)COCCOCCNC(=O)CC[C@H](NC(=O)CCCCCCCCCCCCCCCCC(=O)O)C(=O)O)C(=O)N[C@@H](CC(=O)O)C(=O)N[C@@H](Cc1ccccc1)C(N)=O ({C18 diacid-γGlu-AEEA-AEEA}-D[sY][Nle]PW[Nle]DF-NH2) ; what pEC50 value has been reported? 6.22

Again, but for CCCC[C@H](NC(=O)[C@H](Cc1c[nH]c2ccccc12)NC(=O)CNC(=O)[C@H](CC(C)C)NC(=O)[C@H](Cc1ccc(OS(=O)(=O)O)cc1)NC(=O)[C@H](CC(=O)O)NC(=O)COCCOCCNC(=O)COCCOCCNC(=O)CC[C@H](NC(=O)CCCCCCCCCCCCCCCCC(=O)O)C(=O)O)C(=O)N(C)[C@H](CC(=O)O)C(=O)N(C)[C@@H](Cc1ccccc1)C(N)=O 9.44
